# TARGET_OR_TEST_SYSTEM: R. jostii ADP-Glc PPase (RjoGlgC) (Rhodococcus jostii, UniProt Q0S3Y4)
# Construct: gene glgC; full length, N-terminal His-tag (pET28c), E. coli BL21(DE3) with GroEL/GroES; start GTG changed to ATG, primer encodes MRSQPHV; homotetramer 190 kDa
# ASSAY_EXPLANATION: colorimetric Pi release (Malachite Green) assay of ADP-Glc synthesis, Hill fit
# Type: biochemical
# CONDITIONS_USED: allosteric activator; 5 mM MgCl2, ATP and Glc-1P, pH 8.0, 37°C; read-out: A0.5
RECORDED_METRIC: pEC50
By convention, pEC50 is the negative base-10 log of a molar concentration.

These recorded examples may help you get a feel for the data.
Send back R. jostii ADP-Glc PPase (RjoGlgC) (Rhodococcus jostii, UniProt Q0S3Y4) pEC50 of O=P(O)(O)OC[C@H]1OC(O)[C@@H](O)[C@@H](O)[C@@H]1O (stereo partly drawn) only.
4.25

Send back R. jostii ADP-Glc PPase (RjoGlgC) (Rhodococcus jostii, UniProt Q0S3Y4) pEC50 of O=P(O)(O)OC[C@H]1OC(O)[C@H](O)[C@@H]1O (stereo partly drawn) only.
2.40

New cases:
Send back R. jostii ADP-Glc PPase (RjoGlgC) (Rhodococcus jostii, UniProt Q0S3Y4) pEC50 of O=P(O)(O)OC[C@H]1OC(O)(CO)[C@@H](O)[C@@H]1O (stereo partly drawn) only.
2.66

----------
# TARGET_OR_TEST_SYSTEM: R. jostii ADP-Glc PPase (RjoGlgC) (Rhodococcus jostii, UniProt Q0S3Y4)
# Construct: gene glgC; full length, N-terminal His-tag (pET28c), E. coli BL21(DE3) with GroEL/GroES; start GTG changed to ATG, primer encodes MRSQPHV; homotetramer 190 kDa
# ASSAY_EXPLANATION: colorimetric Pi release (Malachite Green) assay of ADP-Glc synthesis, Hill fit
# Assay type: biochemical
# CONDITIONS_USED: read-out: A0.5; allosteric activator; 5 mM MgCl2, ATP and Glc-1P, pH 8.0, 37°C
RECORDED_METRIC: EC50
# number then unit; no other words

Please give the documented EC50 of O=P(O)(O)OC[C@H]1OC(O)[C@H](O)[C@@H](O)[C@@H]1O (stereo partly shown)
88 µM

----------
# TARGET_OR_TEST_SYSTEM: R. jostii ADP-Glc PPase (RjoGlgC) (Rhodococcus jostii)
# Construct: gene glgC; full length, N-terminal His-tag (pET28c), E. coli BL21(DE3) with GroEL/GroES; start GTG changed to ATG, primer encodes MRSQPHV; homotetramer 190 kDa
# Sequence (Q0S3Y4 1-404): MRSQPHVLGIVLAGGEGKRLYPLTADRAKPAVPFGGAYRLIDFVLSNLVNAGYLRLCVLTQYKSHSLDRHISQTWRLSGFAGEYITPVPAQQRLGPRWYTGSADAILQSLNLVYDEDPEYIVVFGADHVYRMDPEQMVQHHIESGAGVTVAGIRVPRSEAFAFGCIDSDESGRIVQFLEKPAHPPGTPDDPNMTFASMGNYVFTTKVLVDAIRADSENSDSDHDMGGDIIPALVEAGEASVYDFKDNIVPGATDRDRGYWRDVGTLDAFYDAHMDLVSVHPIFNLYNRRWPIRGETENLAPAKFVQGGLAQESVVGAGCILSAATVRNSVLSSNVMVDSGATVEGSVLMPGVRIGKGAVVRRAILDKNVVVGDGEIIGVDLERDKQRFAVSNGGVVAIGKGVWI
# ASSAY_EXPLANATION: colorimetric Pi release (Malachite Green) assay of ADP-Glc synthesis, Hill fit
# Format: biochemical
# CONDITIONS_USED: read-out: A0.5
RECORDED_METRIC: pEC50
By convention, pEC50 is the negative base-10 log of a molar concentration.

Please give the documented pEC50 of "C=C(OP(=O)(O)O)C(=O)O"
3.52
